Reference for the values: a melting point compilation (Tetko et al.; mined from patent text by program, amines drawn as free bases though some values may be those of a salt)

# reported melting point; entries follow
quantityMeasured: melting point

molecule="Nc1nc(SCc2ccccc2)c2ncn(C3CC(F)C(CO)O3)c2n1 (stereo not drawn)" assayresult="150 to 151 °C"
molecule=FC(F)(F)c1nnc2c3cc(Cl)ccc3ccn12 assayresult="228 °C"
molecule=Cn1cc(-c2nnc(-c3ccncc3)o2)c2ccccc21 assayresult="212 to 214 °C"
molecule="O=S(=O)(c1ccc(F)cc1)N1CCCC1c1ccc(F)cc1 (racemic)" assayresult="121 °C"
molecule=COCCn1ccc2cc(NC(=O)/C=C/c3ccc(C(C)(C)C)cc3)ccc21 assayresult="138 °C"
molecule="COc1cc(Cl)c(N)cc1C(=O)NCC1CCCO1 (stereo not drawn)" assayresult="109 to 110 °C"
molecule=O=c1[nH]c(=O)n(Cc2ccc(OCCCCCCCCCOc3ccc(Cn4oc(=O)[nH]c4=O)cc3)cc2)o1 assayresult="149 to 151 °C"
molecule=Clc1cc(Nc2ccc(N3CCOCC3)cc2)ncn1 assayresult="165 to 166 °C"
molecule=CCNC(=O)NCCSCC(=O)NC/C=C\COc1cccc(CN2CCCCC2)c1 assayresult="90.2 to 91.2 °C"
molecule=COc1ccc2nc3ccc(OC)cc3c(Nc3cccc(COC(=O)NC(C)C)c3)c2c1 assayresult="148 to 149 °C"
molecule=CC(C)C[C@H](NS(=O)(=O)c1ccc(N(C)C)cc1)C(=O)N[C@H](C#N)CCc1ccccc1 assayresult="46 to 48 °C"
molecule=NC(=O)Nc1cccc2c1C(=O)c1c-2n[nH]c1-c1ccsc1 assayresult="> 280 °C"
molecule=O=c1c2ccc(Cl)cc2[nH]n1Cc1ccccc1 assayresult="209 to 214 °C"
molecule=CC(=O)c1c(C)c(C)c(C(C)=O)c2c1C(=O)c1ccccc1C2=O assayresult="222 to 224 °C"
molecule=CC(C)n1nc(-c2sc(NC(=O)c3ccc(Cl)cc3)nc2-c2ccccc2)ccc1=O assayresult="205 to 206 °C"
molecule=O=C(C=Cc1ccc(O)c(O)c1)OCCc1ccccc1 assayresult="126 to 128 °C"
molecule=COc1cc2c(cc1OC)CN(c1nc(N)c3cc(OC)c(OC)cc3n1)CCC2 assayresult="122 to 124 °C"
molecule="CC[C@@H](NC(=O)N1CC(=O)NCC(Cc2cc(Cl)ccc2OC)C1=O)C(=O)Nc1nnn[nH]1 (stereo partly drawn)" assayresult="141 to 142 °C"

---

Recorded melting point for the following compounds
quantityMeasured: melting point

compound="OCC1OC(n2cnc3c(-n4cccc4)ncnc32)C(O)C1O (stereo not given)" quantitymeasured="melting point" assayresult="114 to 115 °C"
compound=COc1ccc2cc([C@H](C)C(=O)NNC(=O)CCCO)ccc2c1 quantitymeasured="melting point" assayresult="149 to 151 °C"
compound=COc1ccc(C(Cl)=C(C=O)c2ccc(OC)c(OC)c2)cc1OC quantitymeasured="melting point" assayresult="183 to 184 °C"
compound="CC(C(=O)N1CCCC1C(=O)O)N(C(=O)C(NC(=O)c1ccccc1)SC(=O)c1ccccc1)C(C)(C)C (stereo not given)" quantitymeasured="melting point" assayresult="97 to 100 °C"
compound=O=C(Nc1ccccc1-c1ccc(Cl)cc1F)c1cccnc1Cl quantitymeasured="melting point" assayresult="124 to 126 °C"
compound=CCOC(=O)CN1C(=O)[C@@H](N)CCc2ccccc21 quantitymeasured="melting point" assayresult="106 to 108 °C"
compound=Cc1cc(Oc2c(Cl)cc(C(F)(F)F)cc2Cl)nn1C(=O)NCCCl quantitymeasured="melting point" assayresult="116 to 118 °C"
compound="N#Cc1ccc(OCCNC(=O)C2Cc3ccccc3N2S(=O)(=O)c2ccc(-c3cccc(C(F)(F)F)c3)cc2)cc1 (stereo not given)" quantitymeasured="melting point" assayresult="70 to 80 °C"
compound=CC(C)c1cc(C(C)C)c(CC#N)c(C(C)C)c1C#N quantitymeasured="melting point" assayresult="98 to 101 °C"
compound=CC(=O)C(=Cc1ccc(O)cc1)C(C)=O quantitymeasured="melting point" assayresult="123 to 127 °C"
